Biological target: Recombinant human his-tagged IGF 1R extracellular domain protein (human) (UniProt P08069)
Assay: SPR, captured antibody, pH 7.4
Please enter true where koff is greater than or equal to 0.0002 s⁻¹, and false where it is lower.

Solved cases below.
- Binder: "VRDN-03107 (antibody, V domains shown) VH: QVQLVESGGGVVQPGRSLRLSCAASGFTFSSYSMHWVRQAPGKGLEWVAIIWFDGSSKYYADSVKGRFTISRDNSKNTLYLQMNSLRAEDTAVYYCARELGRRYFDIWGRGTLVTVSS VL: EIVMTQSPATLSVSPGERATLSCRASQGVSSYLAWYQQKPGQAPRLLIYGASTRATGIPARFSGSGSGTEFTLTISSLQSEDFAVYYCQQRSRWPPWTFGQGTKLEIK"
  Class Name: "false"
- Binder: "VRDN-03102 (antibody, V domains shown) VH: QVQLVESGGGVVQPGRSLRLSCAASGFTFSDYTMHWVRQAPGKGLEWVAIIWFDGSSKYYVDSVKGRFTISRDNSKNTLYLQMNSLRAEDTAVYYCARELGRRYFDIWGRGTLVTVSS VL: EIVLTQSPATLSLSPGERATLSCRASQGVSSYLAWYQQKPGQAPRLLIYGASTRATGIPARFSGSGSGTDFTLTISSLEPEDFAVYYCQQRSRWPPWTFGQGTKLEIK"
  Class Name: "false"
- Binder: "VRDN-03045 (antibody, V domains shown) VH: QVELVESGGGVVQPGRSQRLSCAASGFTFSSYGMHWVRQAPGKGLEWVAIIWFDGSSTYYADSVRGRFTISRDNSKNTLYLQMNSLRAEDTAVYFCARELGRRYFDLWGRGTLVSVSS VL: EIVLTQSPATLSLSPGERATLSCRASQSVSHYLAWYQQKPGQAPRLLIYDASKRATGIPARFSGSGSGTDFTLTISSLEPEDFAVYYCQQRSKWPPWTFGQGTKVESK"
  Class Name: "false"
- Binder: "VRDN-03044 (antibody, V domains shown) VH: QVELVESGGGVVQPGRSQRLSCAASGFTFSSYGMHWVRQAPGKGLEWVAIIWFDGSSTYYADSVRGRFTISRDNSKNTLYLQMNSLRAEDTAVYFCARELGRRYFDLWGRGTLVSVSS VL: EIVLTQSPATLSLSPGERATLSCRASQSVHSYLAWYQQKPGQAPRLLIYDASKRATGIPARFSGSGSGTDFTLTISSLEPEDFAVYYCQQRSKWPPWTFGQGTKVESK"
  Class Name: "false"
- Binder: "VRDN-03089 (antibody, V domains shown) VH: QVQLVESGGGVVQPGRSLRLSCAASGFTFSSYGMHWVRQAPGKGLEWVAIIWFDGSSTYYADSVRGRFTISRDNSKNTLYLQMNSLRAEDTAVYYCARELGRRYFDLWGRGTLVTVSS VL: EIVLTQSPATLSLSPGERATLSCRASQSVSSSYLAWYQQKPGQAPRLLIYDASKRATGIPARFSGSGSGTDFTLTISSLEPEDFAVYYCQQRSKWPPWTFGQGTKVEIK"
  Class Name: "true"
- Binder: "VRDN-03106 (antibody, V domains shown) VH: QVQLVESGGGVVQPGRSLRLSCAASGFTFSDHYMDWVRQAPGKGLEWVAIIWFDGSSKYYPGSVKGRFTISRDNSKNTLYLQMNSLRAEDTAVYYCARELGRRYFDIWGRGTLVTVSS VL: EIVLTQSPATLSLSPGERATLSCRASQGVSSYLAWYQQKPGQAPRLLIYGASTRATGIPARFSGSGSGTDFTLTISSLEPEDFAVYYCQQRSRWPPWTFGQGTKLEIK"
  Class Name: "true"
- Binder: "VRDN-03139 (antibody, V domains shown) VH: EVQLVESGGGVVQPGRSLRLSCAASGFTFSDYTMHWVRQAPGKGLEWVAIIWFDGSSKYYADSVKSRFTISRDNSKNTLYLQMNSLRAEDTAVYYCARELGRRYFDIWGQGTLVTVSS VL: EIVMTQSPATLSVSPGERATLSCRASQGVSSNLAWYQQKPGQAPRLLIYGASTRATGIPARFSGSGSGTEFTLTISSLQSEDFAVYYCQQRSRWPPWTFGGGTKLEIK"
  Class Name: "true"
- Binder: "VRDN-03134 (antibody, V domains shown) VH: EVQLVESGGGVVQPGRSLRLSCAASGFTFSSYSMHWVRQAPGKGLEWVAVIWYDGSSKYYADSVKSRFTISRDNSKNTLYLQMNSLRAEDTAVYYCARELGRRYFDIWGQGTLVTVSS VL: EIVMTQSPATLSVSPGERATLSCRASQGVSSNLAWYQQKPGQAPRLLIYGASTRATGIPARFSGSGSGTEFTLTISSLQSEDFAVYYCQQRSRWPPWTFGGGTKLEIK"
  Class Name: "true"

In plain terms: is recorded koff at least 0.0002 s⁻¹ for VRDN-03098 (antibody, V domains shown) VH: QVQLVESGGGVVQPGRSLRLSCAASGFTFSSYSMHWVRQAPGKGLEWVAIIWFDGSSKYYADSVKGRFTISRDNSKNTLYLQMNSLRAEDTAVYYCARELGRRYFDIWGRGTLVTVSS VL: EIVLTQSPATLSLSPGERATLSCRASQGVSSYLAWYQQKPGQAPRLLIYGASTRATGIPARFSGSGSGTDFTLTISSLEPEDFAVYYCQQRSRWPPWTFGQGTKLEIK ?
false

For this binder, is measured koff 0.0002 s⁻¹ or higher? VRDN-03099 (antibody, V domains shown) VH: QVQLVESGGGVVQPGRSLRLSCAASGFTFSSYSMHWVRQAPGKGLEWVAIIWFDGSSKYYVDSVKGRFTISRDNSKNTLYLQMNSLRAEDTAVYYCARELGRRYFDIWGRGTLVTVSS VL: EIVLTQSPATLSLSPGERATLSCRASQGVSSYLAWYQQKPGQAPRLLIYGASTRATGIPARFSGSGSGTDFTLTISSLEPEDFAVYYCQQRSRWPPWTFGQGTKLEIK
false
